assay: Ferric iron-binding assay of biotinylated immodulin peptides; settings: N-terminally biotinylated peptide, 400 ng per well, 60 min room temperature; immX3AVD = 100
Square brackets hold non-standard residues; d marks the D form. Ends that are not written are not given here.
Where Ferric iron binding, fluorescence standardized to immX3AVD control peptide (100), Avg ± SD equals or exceeds 100, the correct label is Satisfied; where it does not, the label is Not satisfied.

KKGFYKKKQCRPSKGRKRGFCW[dA]VD (cysteine pairing not given here) [immX3dAVD] :: Satisfied
RKGFYKRKQCKPSRGRKRGICWAVD [immX5AVD] :: Not satisfied

Record SLNPEWNETKGFYKKKQCRPSKGRKRGFCW[dA][dV][dD] (cysteine pairing not given here) [immX3K1dAdVdD] ; criterion: Ferric iron binding, fluorescence standardized to immX3AVD control peptide (100), Avg ± SD no lower than 100. Met?
Satisfied
